- Subject Of Test: T1, ZIKV-VLP (Native Antigen Inc.) (Zika virus)
- T1 construct: also called Zika VLP; ZVLP
- Method Notes: BLI binning on ZIKV-VLP; 1st mAb: Ab1
Threshold 0.3. response of 2nd mAb below it: Y. response of 2nd mAb at it or above: N.

Take a look at these entries with their results.
Binder: anti-ZIKV antibody 289-3 (antibody, V domains shown, also called clone 289-3; subclone 289-3) VH: QEELEESGGDLVKPGASLTLTCKASGFSFSSGAYICWVRQAPGKGPEWIACIYTGDGRTYYANWAKRRFTISSSSSTTVALEMPSLTDADTATYFCARAIAVGAGYGVGNYFTLWGPGTLVTVSS VL: DIVMTQTPSSVSAAVGGTVTINCHASENIYGYLSWYQQKPGQPPKLLIYKASTLASGVPSRFKGSGAGTQFTLTITALECADAATYYCQSYYTSSSNADGSENAFGGGTEVVVEG
Label Value: N

Binder: anti-ZIKV antibody 270-12 (antibody, V domains shown, also called clone 270-12) VH: QAQLEESGGDLVKPEGSLTLTCTASGFSFTDRHYMCWVRQAPGKGLEWIACVYPGSSGSTYYASWARGRFTISKTSSTTVTLRMTSLTAADTATYFCARSSYPDSSGYSYGMDLWGPGTLVTVSS VL: DIVMTQTPASVEAAVGGTVTIKCQASQDINSNLAWYQQKPGQRPKFLMYLTSKLASGVPSRFRGSGSGTQFTLTISDLECADAATYYCQTYYDISNYGYAFGGGTEVVVKG
Label Value: N

Binder: anti-ZIKV antibody 306-2 (antibody, V domains shown) VH: QSLEESGGDLVKPGASLTLTCTASGFDFSDRYYMCWVRQAPGKGLEWIGCIYVGSGDTYYASWAKGRFTISRTSSTTVTLQMTRLTAADTATYFCARHPGTYFTLWGPGTLVTVSS VL: DVVMTQTPSSVSAAVGGTVTINCQASQNIVNNLAWYQQRPGQPPKLLIYDTSTLASGVPSRFKGSGSGTEFTLTISDLECADAATYYCQTYYYYNKIINGFGGGTEVVVKG
Label Value: Y

Binder: anti-ZIKV antibody 11-3 (antibody, V domains shown, also called clone 11-3) VH: QEQLVESGGGLVQPEGSLTITCTGSGFSFSSRFYMCWVRQAPGKGLEWIACIYGGSSGSTYYASWAKGRFTISKTSSTTVTLQISSLTAADTATYFCARGGSTAAAGFNLWGPGTLLTVSS VL: DVVMTQTPASVSATVGGTVTIKCQASEDIYNLLAWYQQKPGQPPKLLIYYASTLASGVPSRFKGSGSGTEFTLTISDLECADAATYYCQCNDYGGTYVPNAFGGGTEVVVKG
Label Value: N

Field: below-cutoff. Rule: recorded response of 2nd mAb strictly less than 0.3. Subject: anti-ZIKV antibody 242-3 (antibody, V domains shown, also called clone 242-3) VH: QAQLEESGGDLVKPEGSLTLTCTASGFSFTDRHYMCWIRQAPGKGLEWIACVYPGSSGSTYYASWARGRFTISKTSSTTVTLRMTSLTAADTATYFCARSSYPDSSGYSYGMDLWGPGTLVTVSS VL: DIVMTQTPASVEAAVGGTVTIKCQASQNINSNLAWYQQKPGQRPKFLMYLTSKLASGVPSRFRGSGSGTQFTLTISDLECADAATYYCQTYYDISNYGYAFGGGTEVVVK
Y

Field: below-cutoff. Rule: recorded response of 2nd mAb strictly less than 0.3. Subject: anti-ZIKV antibody 78-2 (antibody, V domains shown, also called clone 78-2) VH: QQQLVESGGGLVKPGASLTLNCKASGLDFSTNSYMCWVRQAPGKGLEWIACIYVGDSSEIYYASWAKGRFTISKTSSTTVTLQMTSLTAADTATYFCARDLPSFTAPYAGYLRLWGPGTLVTVSS VL: QPVLTQPPSLSASLGTTARLTCTLRTGYNVGDYPLLWLQRVPGRPPRYLLTYHTEEFKHQGSGVHSRFSGSKDASENAGVLSISGLQPEDEANYYCYTVHATESSLHYVFGGGTQLTVTG
N
